# experimentalSystem: T1, recombinant protein His-SND1 (16-339) (UniProt Q7KZF4 16-339)
# T1 sequence (looked up): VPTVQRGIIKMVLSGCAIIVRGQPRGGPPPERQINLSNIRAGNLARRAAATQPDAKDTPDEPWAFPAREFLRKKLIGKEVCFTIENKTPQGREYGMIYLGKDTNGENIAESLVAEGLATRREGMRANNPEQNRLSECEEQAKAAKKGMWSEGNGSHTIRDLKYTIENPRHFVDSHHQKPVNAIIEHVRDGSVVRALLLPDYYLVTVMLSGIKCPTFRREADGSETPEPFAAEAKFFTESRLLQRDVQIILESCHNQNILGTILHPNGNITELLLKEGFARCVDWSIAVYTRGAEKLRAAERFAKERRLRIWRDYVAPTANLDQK
# testProtocol: fluorescence polarisation
Ends that are not written are not given here.
observationType: Kd

[Q] Determine from records and report Kd for DWNEPAEEWGNWVDE (peptide, UniProt Q86UE4 393-407, looked up, also: FITC label (position not given here)) [MS2D-E]
[A] ~34 nM

This collection of values is drawn from paper PMC10806767.
